Data provenance is PubChem BioAssay.

method-summary: inhibition of PAO1 biofilm formation – strain PAO1, LB-PBS medium, absorbance 600 nm, primary screen (AID 1176); also: test concentration not given here
measurement-conditions: P. aeruginosa PAO1 growth/biofilm, A600, 12 h; higher = more signal
Label scheme for z-score: lower than 0.6 is label 0, 0.6 and above is label 1.

| molecule | class-name |
| --- | --- |
| C=CCC(OC(C)=O)[C@@H]1[C@@H](N(Cc2ccc(-c3ccccc3)cc2)C(=O)c2cccc3ccccc23)c2cc(OCCCO)ccc2N1C(=O)Cc1ccc(OC)cc1 (stereo not given in full) | label 0 |
| N#Cc1ccc(NN2C(C(O)C3CC=CCC3)C=CC3C(=O)N(c4ccccc4)C(=O)C32)cc1 (stereo not given) | label 1 |
| O=C1C2C=CC(C(O)c3ccc([N+](=O)[O-])cc3)N(Nc3ccccc3F)C2C(=O)N1c1ccccc1 (stereo not given) | label 1 |
| CCOC(=O)c1cn(C[C@H](Cc2ccccc2)NC(=O)N[C@H](CO)CCc2oc(C(C)=O)c(C(=O)OC)c2C(=O)OC)nn1 | label 0 |
| COC(=O)[C@@]1(Cc2ccccc2)[C@H]2c3cc(C(=O)N(C)C)n(Cc4ccc(C(F)(F)F)nc4)c3C[C@H]2CN1C(=O)c1ccccc1 | label 0 |
